Experiment: p53 small molecule agonists, cell-based qHTS assay with rat liver microsomes: qHTS cell viability counter screen (AID 1963580); also: nearly all actives have a fitted effect of over 45% in size
Settings: p53RE-bla HCT-116 + rat microsomes, ATP viability, 16 h; series mostly up to 66 µM
From the text: National Center for Advancing Translational Sciences [NCATS] Division of Preclinical Innovation [DPI] U.S. Environmental Protection Agency [EPA] National Institutes of Environmental Health Sciences [NIEHS] National Toxicology Program [NTP] U.S. Food and Drug Administration [FDA] p53, a tumor suppressor protein, is activated following cellular insult, including DNA damage and other cellular stresses. […] The activation of the reporter gene under culture conditions can be detected by fluorescence intensity. […]
Inconclusive results are not listed. The source made the active and inactive calls. Calls follow the shape of the full dose curve.
Respond only with the outcome that fits, drawn from active, inactive

INSERT INTO results (molecule, discretelabel) VALUES
  ('CN/C(=N\[N+](=O)[O-])NCc1cnc(Cl)s1', 'inactive'),
  ('COC1=CC(=O)O[C@@H](/C=C/c2ccc3c(c2)OCO3)C1', 'inactive'),
  ('CCC#N', 'inactive');

Then there is this molecule:
QUERY: Assay outcome for O=CCCl : what was it?
RESULT: inactive
